FYI, the data here is from patent US20230096766A1.

- testProtocol: in vitro
- conditionSet: human, Caco-2, Caco-2 (cm/sec)
*1 amine or outer side, *2 acyl side, *3 side chain or, on linkers, in order; H or OH if unused. Where a SMILES comes first, the peptide text is derived from it. Bridges are numbered along the chain shown (N, C = ends). [ ]: non-standard residue; d: D form. The star is where a group is joined. X11 = CNC(=O)c1ccc(CCN(CC(=O)[*:2])[*:1])cc1OC; NMeF = CN[C@@H](Cc1ccccc1)C(=O)O; NMeL = CN[C@@H](CC(C)C)C(=O)O; NMeV = CN[C@H](C(=O)O)C(C)C; NMeAbu = CC[C@H](NC)C(=O)O; Piperidide = C1CCN(*)CC1
endpointLabel: Papp (×10⁻⁶ cm/s)
State the answer as a number, implicitly in ×10⁻⁶ cm/s.

Q: Data request, read-out Papp, for CC[C@H]1C(=O)N(C)[C@@H](Cc2ccccc2)C(=O)N[C@@H](C)C(=O)N(C)[C@@H](CC(C)C)C(=O)N(C)[C@@H](CC(C)C)C(=O)N[C@@H]([C@@H](C)O)C(=O)N(CCc2ccc(C(=O)NC)c(OC)c2)CC(=O)N(C)[C@@H](CC(C)C)C(=O)N[C@H](C(=O)N2CCCCC2)CC(=O)N(C)[C@@H](C(C)C)C(=O)N[C@@H](CC(C)C)C(=O)N1C [AP217] ([NMeV]L[NMeAbu][NMeF]A[NMeL][NMeL]T[X11][NMeL]D-Piperidide; lactam N-11)
Result: 1

====

- testProtocol: in vitro
- conditionSet: human, Caco-2, Caco-2 (membrane permeability)
Where a SMILES comes first, the peptide text is derived from it. Bridges are numbered along the chain shown (N, C = ends). [ ]: non-standard residue; d: D form. The star is where a group is joined. Phe(4-CF3) = N[C@@H](Cc1ccc(C(F)(F)F)cc1)C(=O)O; NMeF = CN[C@@H](Cc1ccccc1)C(=O)O; NMeI = CC[C@H](C)[C@H](NC)C(=O)O; NMeL = CN[C@@H](CC(C)C)C(=O)O; Piperidide = C1CCN(*)CC1; NPrGly = CCCNCC(=O)O
endpointLabel: Papp
Please answer using the number first and the unit second.

Q: Data request, read-out Papp, for CCCN1CC(=O)N(C)[C@@H](CC(C)C)C(=O)N[C@H](C(=O)N2CCCCC2)CC(=O)N(C)[C@@H](CC(C)C)C(=O)N[C@@H](Cc2ccc(C(F)(F)F)cc2)C(=O)N(C)[C@@H](CC(C)C)C(=O)N(C)[C@@H](CC(C)C)C(=O)N[C@@H](CCC(=O)NC)C(=O)N(C)[C@@H](Cc2ccccc2)C(=O)N(C)[C@@H]([C@@H](C)CC)C(=O)N[C@@H]([C@@H](C)O)C1=O [Compound J04] ([NMeL][Phe(4-CF3)][NMeL][NMeL]E(NHMe)[NMeF][NMeI]T[NPrGly][NMeL]D-Piperidide; lactam N-11)
Result: 0.087 ×10⁻⁶ cm/s

====

- testProtocol: in vitro
- conditionSet: human, Caco-2, Caco-2 (cm/sec)
*1 amine or outer side, *2 acyl side, *3 side chain or, on linkers, in order; H or OH if unused. Where a SMILES comes first, the peptide text is derived from it. Bridges are numbered along the chain shown (N, C = ends). [ ]: non-standard residue; d: D form. The star is where a group is joined. NMePhe(3-Cl) = CN[C@@H](Cc1cccc(Cl)c1)C(=O)O; NMehPhe = CN[C@@H](CCc1ccccc1)C(=O)O; X6 = O=C([C@H](CCCCO)N[*:1])[*:2]; NMeF = CN[C@@H](Cc1ccccc1)C(=O)O; NMeL = CN[C@@H](CC(C)C)C(=O)O; Butyl(3R-OH) = C[C@@H](O)CC*; NMeV = CN[C@H](C(=O)O)C(C)C; NMeA = CN[C@@H](C)C(=O)O; Piperidide = C1CCN(*)CC1; NBuGly = CCCCNCC(=O)O; NPrGly = CCCNCC(=O)O; tBu = CC(C)(C)*
endpointLabel: Papp (×10⁻⁶ cm/s)
State the answer as a number, implicitly in ×10⁻⁶ cm/s.

{"columns": ["molecule", "endpointLabel", "u", "quantitativeReadout"],
 "data": [
  ["CCCN1CC(=O)N(C)[C@@H](CC(C)C)C(=O)N[C@H](C(=O)N2CCCCC2)CC(=O)N(C)[C@@H](C)C(=O)N[C@@H](CCCCO)C(=O)N(C)[C@@H](CC(C)C)C(=O)N(C)[C@@H](Cc2cccc(Cl)c2)C(=O)N[C@@H](C(C)C)C(=O)N(C)[C@@H](CCc2ccccc2)C(=O)N(C)[C@@H](CC(C)C)C(=O)N[C@@H]([C@@H](C)O)C1=O [Compound B05] ([NMeA][X6][NMeL][NMePhe(3-Cl)]V[NMehPhe][NMeL]T[NPrGly][NMeL]D-Piperidide; lactam N-11)", "Papp", "×10⁻⁶ cm/s", 0.26]
]}

Please find the next molecule below.
Q: Data request, read-out Papp, for CCCCN1CC(=O)N(C)[C@@H](C(C)C)C(=O)N[C@@H](COC(C)(C)C)C(=O)N(C)[C@@H](Cc2ccccc2)C(=O)N(C)[C@@H](CC(C)C)C(=O)N[C@H](C(=O)N2CCCCC2)CC(=O)N[C@H](C(C)C)C(=O)N(C)[C@@H](Cc2ccccc2)C(=O)N[C@@H](COCC[C@@H](C)O)C(=O)N(C)[C@@H](CC(C)C)C(=O)N[C@@H]([C@@H](C)O)C1=O [AP108] ([dV][NMeF]S(Butyl(3R-OH))[NMeL]T[NBuGly][NMeV]S(tBu)[NMeF][NMeL]D-Piperidide; lactam N-11)
Result: 0.81

====

- testProtocol: in vitro
- conditionSet: human, Caco-2, Caco-2 (cm/sec)
*1 amine or outer side, *2 acyl side, *3 side chain or, on linkers, in order; H or OH if unused. Where a SMILES comes first, the peptide text is derived from it. Bridges are numbered along the chain shown (N, C = ends). [ ]: non-standard residue; d: D form. The star is where a group is joined. ξ: configuration not given here. Phe(3-OMe,4-CONHMe) = CNC(=O)c1ccc(C[C@H](N)C(=O)O)cc1OC; NMePhe(3-Cl) = CN[C@@H](Cc1cccc(Cl)c1)C(=O)O; NMehPhe = CN[C@@H](CCc1ccccc1)C(=O)O; NMeF = CN[C@@H](Cc1ccccc1)C(=O)O; NMeGABA = CN(CCCC(=O)[*:2])[*:1]; Butyl(3-Me,3-OH) = CC(C)(O)CC*; NMeD = CN[C@@H](CC(=O)O)C(=O)O; NMeL = CN[C@@H](CC(C)C)C(=O)O; Butyl(3S-OH) = C[C@H](O)CC*; NMeV = CN[C@H](C(=O)O)C(C)C; NMeA = CN[C@@H](C)C(=O)O; Piperidide = C1CCN(*)CC1; NBuGly = CCCCNCC(=O)O; ξS = NC(CO)C(=O)O; Sar = CNCC(=O)O; tBu = CC(C)(C)*
This listing pairs compounds with measured Papp.
State the answer as a number, implicitly in nm/s.

Below: 4 compounds and their reported Papp.
{"columns": ["compound", "Papp (nm/s)"],
 "data": [
  ["CC(C)C[C@@H]1NC(=O)[C@H](CCc2ccccc2)N(C)C(=O)[C@@H](C(C)C)NC(=O)C[C@@H](C(=O)N2CCCCC2)NC(=O)[C@H](CC(C)C)N(C)C(=O)[C@H](Cc2ccccc2)N(C)C(=O)[C@H](COCCC(C)(C)O)NC(=O)[C@H](CC(C)C)N(C)C(=O)CN(C)C(=O)[C@H]([C@@H](C)O)NC(=O)[C@H](CC(C)C)N(C)C1=O [AP60] ([dV][NMehPhe]L[NMeL]T[Sar][NMeL]S(Butyl(3-Me,3-OH))[NMeF][NMeL]D-Piperidide; lactam N-11)", 10],
  ["CC(C)C[C@H]1C(=O)N[C@@H](C(C)C)C(=O)N(C)[C@@H](Cc2ccccc2)C(=O)N(C)[C@@H](Cc2cccc(Cl)c2)C(=O)NC(COCC[C@H](C)O)C(=O)N(C)[C@@H](CC(C)C)C(=O)N[C@@H]([C@@H](C)O)C(=O)N(C)[C@@H](CC(C)C)C(=O)N(C)[C@@H](CC(C)C)C(=O)N[C@H](C(=O)N2CCCCC2)CC(=O)N(C)CCCC(=O)N1C (stereo partly drawn) [AP102] ([NMeGABA][NMeL]V[NMeF][NMePhe(3-Cl)][ξS](Butyl(3S-OH))[NMeL]T[NMeL][NMeL]D-Piperidide; lactam N-11)", 4.3],
  ["CC(C)C[C@@H]1NC(=O)[C@H](Cc2ccccc2)N(C)C(=O)[C@H](COC(C)(C)C)NC(=O)[C@H](Cc2ccccc2)N(C)C(=O)[C@H](C)N(C)C(=O)[C@H](CC(C)C)N(C)C(=O)[C@@H](C)NC(=O)C[C@@H](C(=O)N2CCCCC2)N(C)C(=O)[C@H](Cc2ccccc2)N(C)C(=O)[C@H]([C@@H](C)O)NC(=O)[C@H](C(C)C)N(C)C1=O [pd208] ([dA][NMeL][NMeA][NMeF]S(tBu)[NMeF]L[NMeV]T[NMeF][NMeD]-Piperidide; lactam N-11)", 17],
  ["CCCCN1CC(=O)N(C)[C@@H](CC(C)C)C(=O)N[C@@H](Cc2ccc(C(=O)NC)c(OC)c2)C(=O)N(C)[C@@H](CC(C)C)C(=O)N(C)[C@@H](CC(C)C)C(=O)N[C@H](C(=O)N2CCCCC2)CC(=O)N[C@H](CC(C)C)C(=O)N(C)[C@@H](Cc2ccccc2)C(=O)N[C@@H](C(C)C)C(=O)N(C)[C@@H](CC(C)C)C(=O)N[C@@H]([C@@H](C)O)C1=O [AP28] ([dL][NMeF]V[NMeL]T[NBuGly][NMeL][Phe(3-OMe,4-CONHMe)][NMeL][NMeL]D-Piperidide; lactam N-11)", 3.8]
]}

Please find the next compound below.
Q: Data request, read-out Papp, for CC(C)C[C@@H]1NC(=O)[C@H](Cc2ccccc2)N(C)C(=O)[C@@H](C(C)C)NC(=O)C[C@@H](C(=O)N2CCCCC2)NC(=O)[C@H](CC(C)C)N(C)C(=O)[C@H](Cc2cccc(Cl)c2)N(C)C(=O)[C@H](COCC[C@H](C)O)NC(=O)[C@H](CC(C)C)N(C)C(=O)CN(C)C(=O)[C@H]([C@@H](C)O)NC(=O)[C@H](CC(C)C)N(C)C1=O [AP100] ([dV][NMeF]L[NMeL]T[Sar][NMeL]S(Butyl(3S-OH))[NMePhe(3-Cl)][NMeL]D-Piperidide; lactam N-11)
Result: 5.5
